system: U251 CNS; assay: NCI-60 one-dose screen, 48 h; details: 10 µM unless noted
About 83,000 compounds went through this panel and 20% of them were active in at least one assay; those are over-represented in the sample as a whole. Active and inactive are the calls of the source. How the source made its calls: active means growth percent below 10; inactive means the rest.
Would you mind answering with one of these outcomes? true (1) (active), false (0) (inactive)

Each compound tested received a call. Report the one for COc1ccc(C2=CC(c3ccc(OC)cc3Br)N3C=CSC3=N2)cc1 (stereo not drawn) . false (0)

Each compound tested received a call. Report the one for C=C1NC(=O)C(C(C)CC)NC(=O)C2CSCC(NC(=O)CCC(=O)O)C(=O)NC(Cc3ccccc3)C(=O)NC(C)C(=O)NC(CC(C)CC)C(=O)NC(C(=O)NC(Cc3ccccc3)C(=O)N3CCCC3C(=O)N2)C(C)OC(=O)C(CO)NC(=O)C(C(O)COC)N(C)C(=O)C(C(C)C)NC(=O)C(CC(C)CC)NC1=O (stereo not drawn) . false (0)

Each compound tested received a call. Report the one for `O=c1cc(-c2ccc3c(c2)OCCO3)oc2cc(Cl)ccc12` . true (1)

Each compound tested received a call. Report the one for CC(OC(=O)Nc1cccc(Cl)c1)C(=O)O (stereo not drawn) . false (0)

Each compound tested received a call. Report the one for `COc1cc(-c2nc(-c3nc4cc(C(=O)c5ccccc5)ccc4[nH]3)cc3c2[nH]c2ccccc23)cc(OC)c1OC` . false (0)

Each compound tested received a call. Report the one for `COc1cccc(NC(=O)[C@H](C(C)C)n2c(=O)[nH]c3ccccc3c2=O)c1` . false (0)

Each compound tested received a call. Report the one for COc1ccc(C2C3CCc4ccccc4C3=NN2C(=O)c2cc(OC)c(OC)c(OC)c2)cc1O (stereo not drawn) . false (0)

Each compound tested received a call. Report the one for `FC1(F)CCN(Cc2c[nH]c3cc(Cl)ccc23)C[C@H]1CCc1ccccc1` . false (0)

Each compound tested received a call. Report the one for `CC(C)N1CCN(c2ccncc2S(=O)(=O)N2CCN(C)CC2)CC1` . false (0)

Each compound tested received a call. Report the one for `CCCCn1c(C)nc2cc(Nc3nc(Cl)nc4nc[nH]c34)ccc21` . false (0)

Each compound tested received a call. Report the one for `COc1cc(C)c2c(=O)c3c(oc2c1)C(=O)c1c(O)c(OC)cc(O)c1C3=O` . false (0)

Each compound tested received a call. Report the one for `COc1cc2nccc(Oc3ccc(NC(=O)C4(C(=O)Nc5ccc(F)cc5)CC4)cc3)c2cc1O` . false (0)

Each compound tested received a call. Report the one for CC1(C)C(N(O)C(=O)Nc2ccc(Cl)cc2)N(c2ccc(Cl)cc2)C(=O)N1CC(=O)N/N=C/C=C/c1ccc([N+](=O)[O-])o1 (stereo not drawn) . true (1)

Each compound tested received a call. Report the one for `CCCCn1c(C)nc2ccc(Nc3nc(Cl)nc4nc[nH]c34)cc21` . false (0)

Each compound tested received a call. Report the one for `CC1=C(O)C(=O)C(c2c(C)cc(C)c(Br)c2C)=C(O)C1=O` . false (0)

Each compound tested received a call. Report the one for OC(c1cc2c(Cl)cc(Cl)cc2c2cc(C(F)(F)F)ccc12)C1CCCCN1 (stereo not drawn) . true (1)

Each compound tested received a call. Report the one for COc1ccc(C2CC(c3cccc(Nc4ccnc5cc(Cl)ccc45)c3)=NN2c2ccccc2)cc1 (stereo not drawn) . false (0)

Each compound tested received a call. Report the one for `Fc1cc(-c2nnc3sc(-c4ccc(Cl)cc4)nn23)c(Cl)cc1Cl` . false (0)

Values from PubChem BioAssay (NCI)
